Tested on: PI3K induced Akt/PKB phosphorylation in Raw 264-7 macrophages
Experiment: Cell based ELISA of Akt/PKB phosphorylation in macrophages after Complement 5a stimulation
Settings: Mus musculus, RAW264.7, 5 min, re-testing, 50 nM Complement 5a for 5 minutes, read-out: Cell Assay (P-Akt, Elisa) IC50
pIC50: −log10 of the molar value.

{"sample.smiles": "CC(=O)Nc1nc(C)c(-c2csc(S(=O)(=O)N3CCC(O)CC3)c2)s1", "pIC50": 6.49}

###

Target: Human recombinant GST-PI3Kγ (Homo sapiens)
Sequence (P48736 whole entry): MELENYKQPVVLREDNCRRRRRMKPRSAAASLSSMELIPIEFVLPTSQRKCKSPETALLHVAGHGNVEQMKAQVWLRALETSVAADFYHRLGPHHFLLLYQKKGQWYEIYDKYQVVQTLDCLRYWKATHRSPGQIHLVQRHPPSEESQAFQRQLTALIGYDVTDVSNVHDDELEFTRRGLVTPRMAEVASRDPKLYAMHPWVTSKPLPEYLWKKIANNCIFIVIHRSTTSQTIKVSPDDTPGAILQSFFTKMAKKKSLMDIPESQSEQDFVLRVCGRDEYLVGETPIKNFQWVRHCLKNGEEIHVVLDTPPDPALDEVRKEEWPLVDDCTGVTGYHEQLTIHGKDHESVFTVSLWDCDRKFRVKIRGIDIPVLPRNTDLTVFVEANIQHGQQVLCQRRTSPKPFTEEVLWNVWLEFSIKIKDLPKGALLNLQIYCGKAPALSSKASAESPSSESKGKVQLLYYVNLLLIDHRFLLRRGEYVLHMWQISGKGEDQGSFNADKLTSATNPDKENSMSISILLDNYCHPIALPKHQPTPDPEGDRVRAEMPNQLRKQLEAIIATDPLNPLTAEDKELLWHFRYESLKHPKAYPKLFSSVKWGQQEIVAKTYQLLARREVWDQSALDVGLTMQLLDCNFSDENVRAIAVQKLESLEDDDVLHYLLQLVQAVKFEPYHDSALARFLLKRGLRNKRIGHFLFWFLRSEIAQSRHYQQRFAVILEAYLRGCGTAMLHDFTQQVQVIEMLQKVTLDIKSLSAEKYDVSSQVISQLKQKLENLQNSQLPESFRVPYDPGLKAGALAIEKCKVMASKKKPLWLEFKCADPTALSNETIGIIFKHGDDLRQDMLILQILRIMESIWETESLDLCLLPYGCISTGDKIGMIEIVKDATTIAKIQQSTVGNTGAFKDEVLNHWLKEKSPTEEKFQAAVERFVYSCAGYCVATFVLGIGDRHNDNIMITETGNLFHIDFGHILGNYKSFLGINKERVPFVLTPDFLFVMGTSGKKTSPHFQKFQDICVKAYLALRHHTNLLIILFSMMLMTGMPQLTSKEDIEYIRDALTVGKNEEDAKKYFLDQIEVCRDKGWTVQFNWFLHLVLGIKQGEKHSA
Experiment: High throughput PI3K lipid kinase assay (SPA, neomycin-coated beads)
Source text: a) High Throughput PI3K Lipid Kinase Assay (Binding Assay): The efficacy of compounds of the invention in inhibiting the PI3K induced-lipid phosphorylation may be tested in the following binding assay. The assay combines the scintillation proximity assay technology (SPA, Amersham) with the capacity of neomycin (a polycationic antibiotic) to bind phospholipids with high affinity and specificity. […]
pIC50: −log10 of the molar value.
Quick list: pIC50 per entry.

{"compound": "CC(=O)Nc1nc(C)c(-c2csc(S(=O)(=O)NCCN(C)C)c2)s1 [Example 23]", "tested.system": "Human recombinant GST-PI3Kγ (Homo sapiens)", "pIC50": 7.55}
{"compound": "CC(=O)Nc1nc(C)c(-c2csc(S(=O)(=O)NC3CCN(C)CC3)c2)s1 [Example 28]", "tested.system": "Human recombinant GST-PI3Kγ (Homo sapiens)", "pIC50": 7.11}
{"compound": "COC(=O)CCCC(=O)Nc1nc(C)c(-c2ccc(S(=O)(=O)NCCN3CCOCC3)s2)s1 [Example 7]", "tested.system": "Human recombinant GST-PI3Kγ (Homo sapiens)", "pIC50": 5.92}
{"compound": "COC(=O)[C@H](CO)NS(=O)(=O)c1ccc(-c2sc(NC(C)=O)nc2C)s1 [Example 15]", "tested.system": "Human recombinant GST-PI3Kγ (Homo sapiens)", "pIC50": 7.15}

###

Molecular target: Human recombinant GST-PI3Kγ (Homo sapiens)
Assay: High throughput PI3K lipid kinase assay (SPA, neomycin-coated beads)
pIC50: −log10 of the molar value.
Below, each entry is listed alongside its reported pIC50.

{"molecule": "CC(=O)Nc1nc(C)c(-c2csc(S(=O)(=O)N3CCN(C)CC3)c2)s1 [Example 29]", "pIC50": 7.55}
{"molecule": "CNC(=O)CNS(=O)(=O)c1ccc(-c2sc(NC(C)=O)nc2C)s1 [Example 12]", "pIC50": 6.28}
{"molecule": "CC(=O)NCCNS(=O)(=O)c1ccc(-c2sc(NC(C)=O)nc2C)s1 [Example 13]", "pIC50": 6.96}
{"molecule": "CC(=O)Nc1nc(C)c(-c2csc(S(=O)(=O)N3CCOCC3)c2)s1 [Example 46]", "pIC50": 7.57}
{"molecule": "CC(=O)Nc1nc(C)c(-c2csc(S(=O)(=O)N3CCNCC3)c2)s1 [Example 26]", "pIC50": 7.17}
{"molecule": "CC(=O)Nc1nc(C)c(-c2csc(S(=O)(=O)NCCN3CCOCC3)c2)s1 [Example 24]", "pIC50": 7.80}
{"molecule": "CC(=O)Nc1nc(C)c(-c2ccc(S(=O)(=O)NC3CCN(C)CC3)s2)s1 [Example 4]", "pIC50": 6.53}
{"molecule": "CC(=O)Nc1nc(C)c(-c2ccc(S(=O)(=O)NCC3COC(C)(C)O3)s2)s1 (stereo not shown) [Example 14]", "pIC50": 6.70}
{"molecule": "CC(=O)Nc1nc(C)c(-c2ccc(S(=O)(=O)NCCN3CCOCC3)s2)s1 [Example 9]", "pIC50": 6.80}
{"molecule": "CC(=O)Nc1nc(C)c(-c2ccc(S(=O)(=O)N3CCNCC3)s2)s1 [Example 11]", "pIC50": 6.70}
